pIC50: −log10 of the molar value. Where a SMILES comes first, the peptide text is derived from it. [ ]: non-standard residue; d: D form. The star is where a group is joined. X1 = Cc1ccc(Nc2ncc3c(n2)N(C)C(=O)N(c2cc(C(=O)*)ccc2C)C3)cn1; Ac4c = NC1(C(=O)O)CCC1; Aib = CC(C)(N)C(=O)O
Let's go through some recorded pIC50 values for c-Src (Homo sapiens, UniProt P12931) together.
readout-kind: pIC50

{"compound": "Cc1ccc(Nc2ncc3c(n2)N(C)C(=O)N(c2cc(C(=O)N[C@@H](Cc4ccccc4)C(=O)N4CCC[C@H]4C(=O)NC(C)(C)C(=O)N[C@H](C(=O)N(C)C)C(C)C)ccc2C)C3)cn1 [7l] (X1-FP[Aib]V-NMe2)", "value-reported": 5.76}
{"compound": "Cc1ccc(Nc2ncc3c(n2)N(C)C(=O)N(c2cc(C(=O)N[C@H](C(=O)N4CCC[C@H]4C(=O)NC4(C(=O)N[C@@H](CC(C)C)C(=O)N(C)C)CCC4)C(C)C)ccc2C)C3)cn1 [7f] (X1-VP[Ac4c]L-NMe2)", "value-reported": 6.18}
{"compound": "CC1=N[C@H](Cc2ccccc2)C(=O)Nc2cc(C(=O)Nc3ccc(C)c(N4Cc5cnc(Nc6ccc(C)nc6)nc5N(C)C4=O)c3)ccc21 [11l]", "value-reported": 7.71}

====

Hi! I'm sharing some pIC50 results obtained with c-Src (Homo sapiens, UniProt P12931).
Sequence (P12931 whole entry): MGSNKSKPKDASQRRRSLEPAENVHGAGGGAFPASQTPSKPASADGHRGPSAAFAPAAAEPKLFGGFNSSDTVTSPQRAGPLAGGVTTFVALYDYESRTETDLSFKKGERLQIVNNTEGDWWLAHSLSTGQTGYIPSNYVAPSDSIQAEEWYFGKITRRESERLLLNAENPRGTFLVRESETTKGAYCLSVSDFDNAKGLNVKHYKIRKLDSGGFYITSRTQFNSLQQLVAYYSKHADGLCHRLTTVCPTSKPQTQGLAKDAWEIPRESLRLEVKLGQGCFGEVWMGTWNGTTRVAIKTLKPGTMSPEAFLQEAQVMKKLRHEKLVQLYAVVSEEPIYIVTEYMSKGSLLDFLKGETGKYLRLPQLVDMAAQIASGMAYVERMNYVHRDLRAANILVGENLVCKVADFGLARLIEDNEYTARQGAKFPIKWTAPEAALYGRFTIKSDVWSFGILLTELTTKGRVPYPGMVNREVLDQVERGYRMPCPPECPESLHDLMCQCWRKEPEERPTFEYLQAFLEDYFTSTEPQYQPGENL
pIC50: −log10 of the molar value. Where a SMILES comes first, the peptide text is derived from it. [ ]: non-standard residue; d: D form. The star is where a group is joined. X1 = Cc1ccc(Nc2ncc3c(n2)N(C)C(=O)N(c2cc(C(=O)*)ccc2C)C3)cn1; Aib = CC(C)(N)C(=O)O
readout-kind: pIC50

{"molecule": "Cc1ccc(Nc2ncc3c(n2)N(C)C(=O)N(c2cc(C(=O)N[C@@H](C(=O)N4CCC[C@@H]4C(=O)NC(C)(C)C(=O)N[C@H](CC(C)C)C(=O)N(C)C)C(C)C)ccc2C)C3)cn1 [7c] (X1-[dV][dP][Aib][dL]-NMe2)", "test-system": "c-Src (Homo sapiens, UniProt P12931)", "value-reported": 6.13}
{"molecule": "Cc1ccc(Nc2ncc3c(n2)N(C)C(=O)N(c2cc(C(=O)N[C@@H](Cc4ccccc4)C(=O)N4CCC[C@@H]4C(=O)N[C@H](C(=O)N[C@H](C)c4ccccc4)C(C)C)ccc2C)C3)cn1 [7w]", "test-system": "c-Src (Homo sapiens, UniProt P12931)", "value-reported": 6.23}
{"molecule": "Cc1ccc(Nc2ncc3c(n2)N(C)C(=O)N(c2cc(C(=O)N[C@@H](C)C(=O)N4CCC[C@H]4C(=O)NC(C)(C)C(=O)N[C@H](C(=O)N(C)C)C(C)C)ccc2C)C3)cn1 [7m] (X1-AP[Aib]V-NMe2)", "test-system": "c-Src (Homo sapiens, UniProt P12931)", "value-reported": 5.40}

====

# IC50 annotations
- test-system: Lck (Homo sapiens, UniProt P06239)
- Construct: purchased Reaction Biology Corp
- Sequence (P06239 whole entry): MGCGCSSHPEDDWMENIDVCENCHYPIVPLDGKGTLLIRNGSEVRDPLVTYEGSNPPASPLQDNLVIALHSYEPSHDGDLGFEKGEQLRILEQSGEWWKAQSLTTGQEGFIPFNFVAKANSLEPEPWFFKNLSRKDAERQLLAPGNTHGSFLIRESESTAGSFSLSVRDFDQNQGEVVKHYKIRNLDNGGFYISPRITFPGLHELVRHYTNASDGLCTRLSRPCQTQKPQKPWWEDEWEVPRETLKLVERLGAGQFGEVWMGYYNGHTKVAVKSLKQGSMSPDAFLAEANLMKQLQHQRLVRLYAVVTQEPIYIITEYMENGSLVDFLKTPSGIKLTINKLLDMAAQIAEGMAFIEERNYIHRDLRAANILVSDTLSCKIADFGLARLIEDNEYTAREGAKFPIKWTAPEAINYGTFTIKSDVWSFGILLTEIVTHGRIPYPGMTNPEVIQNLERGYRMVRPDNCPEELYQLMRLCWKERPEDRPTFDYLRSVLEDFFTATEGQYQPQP
- procedure-text: In vitro kinase assay (IC50)
- Format: biochemical
Where a SMILES comes first, the peptide text is derived from it. [ ]: non-standard residue; d: D form. The star is where a group is joined. X1 = Cc1ccc(Nc2ncc3c(n2)N(C)C(=O)N(c2cc(C(=O)*)ccc2C)C3)cn1; Nva = CCC[C@H](N)C(=O)O; Ac3c = NC1(C(=O)O)CC1; Aib = CC(C)(N)C(=O)O

{"molecule": "Cc1ccc(Nc2ncc3c(n2)N(C)C(=O)N(c2cc(NC(=O)c4ccc5c(c4)NC(=O)[C@H](Cc4ccccc4)N=C5c4ccccc4)ccc2C)C3)cn1 [11a]", "IC50, nM": 8.5}
{"molecule": "CC1=N[C@@H](Cc2ccccc2)C(=O)Nc2cc(C(=O)Nc3ccc(C)c(N4Cc5cnc(Nc6ccc(C)nc6)nc5N(C)C4=O)c3)ccc21 [11k]", "IC50, nM": 3.57}
{"molecule": "Cc1ccc(Nc2ncc3c(n2)N(C)C(=O)N(c2cc(C(=O)N[C@H](C(=O)N4CCC[C@@H]4C(=O)N[C@H](C(=O)N[C@H](C)c4ccccc4)C(C)C)C(C)C)ccc2C)C3)cn1", "IC50, nM": 403}
{"molecule": "CC1=N[C@H](Cc2ccccc2)C(=O)Nc2cc(C(=O)Nc3ccc(C)c(N4Cc5cnc(Nc6ccc(C)nc6)nc5N(C)C4=O)c3)ccc21 [11l]", "IC50, nM": 4.63}
{"molecule": "CCC[C@H](NC(=O)c1ccc(C)c(N2Cc3cnc(Nc4ccc(C)nc4)nc3N(C)C2=O)c1)C(=O)N1CCC[C@H]1C(=O)NC(C)(C)C(=O)N[C@@H](CC(C)C)C(=O)N(C)C [7t] (X1-[Nva]P[Aib]L-NMe2)", "IC50, nM": 70.8}
{"molecule": "Cc1ccc(Nc2ncc3c(n2)N(C)C(=O)N(c2cc(NC(=O)c4ccc5c(c4)NC(=O)[C@H](Cc4ccc(F)cc4)N=C5c4ccccc4)ccc2C)C3)cn1 [11g]", "IC50, nM": 42.1}
{"molecule": "Cc1ccc(Nc2ncc3c(n2)N(C)C(=O)N(c2cc(C(=O)N[C@H](C(=O)N4CCC[C@H]4C(=O)NC4(C(=O)N[C@@H](CC(C)C)C(=O)N(C)C)CC4)C(C)C)ccc2C)C3)cn1 [7d] (X1-VP[Ac3c]L-NMe2)", "IC50, nM": 49}
{"molecule": "CC[C@@H](C)[C@H]1N=C(c2ccccc2)c2ccc(C(=O)Nc3ccc(C)c(N4Cc5cnc(Nc6ccc(C)nc6)nc5N(C)C4=O)c3)cc2NC1=O [11e]", "IC50, nM": 10.7}
{"molecule": "Cc1ccc(Nc2ncc3c(n2)N(C)C(=O)N(c2cc(C(=O)N[C@H](C(=O)N4CCC[C@H]4C(=O)NC(C)(C)C(=O)N[C@@H](CC(C)C)C(=O)N(C)C)C(C)C)ccc2C)C3)cn1 [7a] (X1-VP[Aib]L-NMe2)", "IC50, nM": 23}
{"molecule": "Cc1ccc(Nc2ncc3c(n2)N(C)C(=O)N(c2cc(C(=O)N[C@H](C(=O)N4CCC[C@H]4C(=O)NCC(=O)N[C@@H](CC(C)C)C(=O)N(C)C)C(C)C)ccc2C)C3)cn1 [7g] (X1-VPGL-NMe2)", "IC50, nM": 40.2}
{"molecule": "Cc1ccc(Nc2ncc3c(n2)N(C)C(=O)N(c2cc(C(=O)N[C@@H](CC(C)C)C(=O)N4CCC[C@H]4C(=O)NC(C)(C)C(=O)N[C@@H](CC(C)C)C(=O)N(C)C)ccc2C)C3)cn1 [7q] (X1-LP[Aib]L-NMe2)", "IC50, nM": 15.4}
{"molecule": "Cc1ccc(Nc2ncc3c(n2)N(C)C(=O)N(c2cc(C(=O)N[C@H](C(=O)N4CCC[C@@H]4C(=O)NCC(=O)N[C@@H](CC(C)C)C(=O)N(C)C)C(C)C)ccc2C)C3)cn1 [7h] (X1-V[dP]GL-NMe2)", "IC50, nM": 64.4}
{"molecule": "C=CCCC1=N[C@@H](CC(=O)Nc2ccc(C)c(N3Cc4cnc(Nc5ccc(C)nc5)nc4N(C)C3=O)c2)C(=O)N(C)c2ccccc21 [11p]", "IC50, nM": 3.8}
{"molecule": "Cc1ccc(Nc2ncc3c(n2)N(C)C(=O)N(c2cc(C(=O)NCC(=O)N4CCC[C@H]4C(=O)NC(C)(C)C(=O)N[C@@H](CC(C)C)C(=O)N(C)C)ccc2C)C3)cn1 [7r] (X1-GP[Aib]L-NMe2)", "IC50, nM": 216}

Data origin: paper PMC9067983
